- EXPERIMENTAL_SYSTEM: hPPARβ (Homo sapiens, UniProt Q03181)
- Sequence (Q03181 171-441 limits assumed): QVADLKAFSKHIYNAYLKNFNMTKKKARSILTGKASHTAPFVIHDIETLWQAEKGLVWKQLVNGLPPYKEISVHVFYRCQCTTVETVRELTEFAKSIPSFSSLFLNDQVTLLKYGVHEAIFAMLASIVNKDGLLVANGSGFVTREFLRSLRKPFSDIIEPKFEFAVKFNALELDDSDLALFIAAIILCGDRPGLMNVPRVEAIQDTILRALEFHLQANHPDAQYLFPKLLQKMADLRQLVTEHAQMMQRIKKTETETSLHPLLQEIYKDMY
- EXPERIMENT_NOTES: Transient transfection assay in HepG2 cells, Gal4-hPPARβ chimeric receptor, luciferase reporter
- Assay type: cell-based
- PROTOCOL_CONDITIONS: Hep G2-hBeta EC50, 24 hours incubation; read-out: EC50β nM (Group)
Please respond with reported EC50 for every item in the list.

Would you please look over these solved cases?
// lookup EC50 for COc1ccc(CSc2ccc(OCC(=O)O)c3c2CCC3)cc1OCc1ccc(C(F)(F)F)cc1
300 to 500 nM

// lookup EC50 for Cc1cc(SCc2ccc(OCc3ccc(C(C)(C)C)cc3)cc2)ccc1OCC(=O)O
< 300 nM

// lookup EC50 for COc1cc(OCC(=O)O)c(C)cc1[S+]([O-])Cc1ccc(-c2ccc(C(F)(F)F)cc2)cc1 (centres unmarked)
2000 to 5000 nM

// lookup EC50 for COc1cc(OCC(=O)O)c(C)cc1SCc1ccc(-c2cccc(OC(F)(F)F)c2)cc1
< 300 nM

// lookup EC50 for CCCCc1cc(SCc2ccc(-c3ccc(C(F)(F)F)cc3)cc2)ccc1OCC(=O)O
500 to 1000 nM

// lookup EC50 for Cc1cc(SCc2ccc(OCc3ccc(Cl)cc3Cl)cc2)ccc1OCC(=O)O
300 to 500 nM

// lookup EC50 for Cc1cc(SCc2ccc(OCc3ccc(C(F)(F)F)cc3)cc2)c2c(c1OCC(=O)O)CCC2
> 5000 nM

# ---- query molecule ----
// lookup EC50 for Cc1cc(SCc2ccc(-c3ccc(C(F)(F)F)cn3)cc2)c2c(c1OCC(=O)O)CCO2
< 300 nM

Entry source: patent US6964983B2
